- measurementNotes: compound fluorescence in toxin protease inhibitor counterscreen, primary screen, artefact control for toxin protease inhibitor project, biochemical, multiplex microsphere, HTS (AID 624483)
- experimentalSetup: compound autofluorescence counterscreen, microsphere flow cytometry; hits give high values
Out of some 360,000 compounds screened, about 11,000 (3.1%) were called active. Inconclusive results (about 2%) are left out. This is one part of a sample in which actives are shown more often than they occur.
metric: fluorescence intensity

Answered examples (6):
[[record]]
compound = "CCc1ccc(Nc2n[n+](-c3ccccc3)c(-c3cccc(Cl)c3Cl)s2)cc1"
assayvalue = "4300 (inactive)"

[[record]]
compound = "CCC(=NCc1ccco1)c1c(O)n(Cc2ccccc2)c(=O)[nH]c1=O"
assayvalue = "16900 (active)"

[[record]]
compound = "CC(=O)c1cccc(NC(=S)N2CCCC2)c1"
assayvalue = "4420 (inactive)"

[[record]]
compound = "COc1ccc2c(Cl)c(-c3nnco3)sc2c1"
assayvalue = "3460 (inactive)"

[[record]]
compound = "CC(C)(C)C1CCC(=O)N2CCC[C@]2(c2ccccc2)C1 (stereo partly drawn)"
assayvalue = "5900 (inactive)"

[[record]]
compound = "Cc1ccc(S(=O)(=O)NCC(=O)N(CC(=O)NC2CCCCC2)Cc2ccco2)cc1"
assayvalue = "3490 (inactive)"


Now consider a different compound.
Exercise: What measured fluorescence intensity goes with O=C(OCC#CCSc1nnc(-c2ccncc2)o1)c1sc2ccccc2c1Cl ?
Solution: 2840 (inactive)

----------
- measurementNotes: compound fluorescence in toxin protease inhibitor counterscreen, primary screen, artefact control for toxin protease inhibitor project, biochemical, multiplex microsphere, HTS (AID 624483)
- experimentalSetup: compound autofluorescence counterscreen, microsphere flow cytometry; hits give high values
The campaign covered roughly 360,000 compounds. About 11,000 (3.1%) were called active. Not shown: some 2% with an inconclusive outcome. For the sample, actives were picked, then their nearest neighbours and some compounds at random.
Binary call on fluorescence intensity: satisfied from 7000 upward, not satisfied beneath that.

Previously resolved entries follow.
[[record]]
compound = "COc1cc(CO)c(C2(CO)CCCC2)cc1OC"
assignedcategory = "not satisfied"

[[record]]
compound = "CCNc1nc(NC(C)C)nc(OCCOC(=O)c2ccccc2)n1"
assignedcategory = "satisfied"

[[record]]
compound = "COc1cc(C2C(C(=O)OCCC#N)=C(C)NC3=C2S(=O)(=O)c2ccccc23)cc(OC)c1OC (stereo unspecified)"
assignedcategory = "satisfied"

[[record]]
compound = "COC(=O)c1ccc(Oc2nc(NC(C)C)nc(SC)n2)cc1"
assignedcategory = "not satisfied"

[[record]]
compound = "COc1ccc(CC(N)c2csc(NC(=O)Nc3ccc(C(C)C)cc3)n2)cc1 (stereo unspecified)"
assignedcategory = "not satisfied"

[[record]]
compound = "CN(CC#CCC(c1ccccc1)c1ccccc1)C(C)(C)C"
assignedcategory = "satisfied"


Exercise: Answer whether fluorescence intensity of O=C1NC(O)CCN1C1CC(O)C(CO)O1 (stereo unspecified) is greater than or equal to 7000.
Solution: not satisfied

Exercise: Determine whether this compound has fluorescence intensity no lower than 7000: Cc1ccc(S(=O)(=O)NCCNC(C)c2ccc(Br)cc2)cc1 (stereo unspecified)
Solution: not satisfied

Exercise: Could you please find out whether Cc1ccc(S(=O)(=O)NCC(C)NS(C)(=O)=O)cc1 (stereo unspecified) has fluorescence intensity that meets 7000 or exceeds it?
Solution: satisfied

Exercise: Does fluorescence intensity meet or surpass 7000 for Cc1ccc(S(=O)(=O)N(CC(O)CN2CCCCC2)c2cccc([N+](=O)[O-])c2)cc1 (stereo unspecified) ?
Solution: not satisfied

Exercise: Check the entry Cc1ccc(S(=O)(=O)NCC(=O)N2CCOCCOCCOCCOCC2)cc1 : does fluorescence intensity equal or exceed 7000?
Solution: not satisfied

Each recorded value in this set is attributed to PubChem BioAssay AID624483.
